- experimentalDetails: Acute toxicity by intravenous administration
- details: mouse, in vivo; intravenous administration in mice
valueKind: LD50 (mg/kg)
Numbers only, in mg/kg.

Enquiry: Please supply the value of reported LD50 for the item Cc1[nH]cnc1Cn1ccc2cc(N)c(Cl)cc2c1=O.Cl.Cl
Return: 50

---

- systemTested: 5-HT3 receptor (Rattus norvegicus, UniProt P35563)
- Construct: from tissue
- Sequence (P35563 24-483): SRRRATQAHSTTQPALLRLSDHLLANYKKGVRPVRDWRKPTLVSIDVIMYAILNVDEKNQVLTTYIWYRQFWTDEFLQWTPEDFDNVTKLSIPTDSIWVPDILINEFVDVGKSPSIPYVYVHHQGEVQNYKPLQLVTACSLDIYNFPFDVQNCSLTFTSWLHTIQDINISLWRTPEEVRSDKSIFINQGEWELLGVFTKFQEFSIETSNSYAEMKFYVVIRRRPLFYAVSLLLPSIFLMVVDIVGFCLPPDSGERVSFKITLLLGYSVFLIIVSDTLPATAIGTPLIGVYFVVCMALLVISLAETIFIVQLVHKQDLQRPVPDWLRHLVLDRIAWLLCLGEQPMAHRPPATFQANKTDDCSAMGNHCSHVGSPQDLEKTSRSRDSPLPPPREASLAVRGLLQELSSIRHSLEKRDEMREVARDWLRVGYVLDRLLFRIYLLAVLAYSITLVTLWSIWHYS
- experimentalDetails: Suppression of 5-HT-induced reflex bradycardia in urethane-anesthetised rats (antagonistic activity against 5-HT3 receptor in vivo)
- Design: species or system Male Wister rat
- details: intravenous administration, suppression of reflex bradycardia generated by i.v. 5-HT, read-out: IC50 i.v.
- Method: Male Wister rat was urethane-anesthetised and fixed. Cannulas were inserted in the carotoid artery and in the thigh vein as used for recording of blood pressure and heart beat, and for the administration of the test compounds, respectively. Several doses of a compound of the present invention were administered from the vein. 5-HT was administered rapidly to the vein, 2 mins. after insertion of cannulas. […]
Would you kindly list ED50 for each of these compounds?
Give bare numbers, in mg/kg.

Some entries whose results are on file:
compound | systemTested | ED50 (mg/kg)
CNc1cc2ccn(Cc3nc[nH]c3C)c(=O)c2cc1Cl.Cl.Cl | 5-HT3 receptor (Rattus norvegicus, UniProt P35563) | 0.49
CC(=O)Nc1cc2ccn(Cc3nc[nH]c3C)c(=O)c2cc1Cl | 5-HT3 receptor (Rattus norvegicus, UniProt P35563) | 0.99
CNc1cc(Cl)cc2c(=O)n(Cc3nc[nH]c3C)ccc12.Cl.Cl [1(e)] | 5-HT3 receptor (Rattus norvegicus, UniProt P35563) | 1.44

Now consider a different compound.
Enquiry: Please supply the value of reported ED50 for the item Cc1[nH]cnc1Cn1ccc2cc(N)c(Cl)cc2c1=O.Cl.Cl
Return: 0.39
